src = ChEMBL document CHEMBL1811881

For each record, write down the corresponding inhibition.
Target: 17-beta-hydroxysteroid dehydrogenase type 3 (Homo sapiens) (UniProt P37058)
Sequence (P37058 whole entry): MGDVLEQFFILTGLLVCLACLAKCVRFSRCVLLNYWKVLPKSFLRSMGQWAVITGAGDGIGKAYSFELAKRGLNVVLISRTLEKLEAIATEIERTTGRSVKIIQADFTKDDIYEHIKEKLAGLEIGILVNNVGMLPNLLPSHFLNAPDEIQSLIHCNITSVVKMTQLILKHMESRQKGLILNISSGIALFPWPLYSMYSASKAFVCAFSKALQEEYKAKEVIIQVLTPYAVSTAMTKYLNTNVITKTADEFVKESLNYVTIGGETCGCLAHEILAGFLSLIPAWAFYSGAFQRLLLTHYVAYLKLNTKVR
Test Description: Inhibition of 17Beta-HSD3 expressed in intact HEK293 cells assessed as transformation of [14C]-4-androstene-3,17-dione into [14C]-testosterone in presence of NADPH at 0.1 uM after 1 hr incubation
Assay type: cell-based

C[C@@H]1CN(Cc2ccc(C(F)(F)F)cc2)[C@@H](C)CN1C[C@@]1(O)CC[C@@]2(C)[C@@H](CC[C@@H]3[C@@H]2CC[C@]2(C)C(=O)CC[C@@H]32)C1; 36%
C[C@]12CC[C@](O)(CN3CCN(C(=O)c4ccccc4C(F)(F)F)CC3)C[C@@H]1CC[C@@H]1[C@@H]2CC[C@]2(C)C(=O)CC[C@@H]12; 62%
C[C@]12CC[C@](O)(CN3CCN(Cc4cc(C(F)(F)F)ccc4C(F)(F)F)CC3)C[C@@H]1CC[C@@H]1[C@@H]2CC[C@]2(C)C(=O)CC[C@@H]12; 12%
CCN(CCN1C[C@]2(CC[C@@]3(C)[C@@H](CC[C@@H]4[C@@H]3CC[C@]3(C)C(=O)CC[C@@H]43)C2)OC1=O)C1CCCCC1; 2%
Cc1cccc(OCCN2C[C@]3(CC[C@@]4(C)[C@@H](CC[C@@H]5[C@@H]4CC[C@]4(C)C(=O)CC[C@@H]54)C3)OC2=O)c1; 40%

Now look at this one.
Query :: Find the recorded inhibition belonging to C[C@]12CC[C@](O)(CN3CCN(C(=O)c4ccccc4)CC3)C[C@@H]1CC[C@@H]1[C@@H]2CC[C@]2(C)C(=O)CC[C@@H]12 and report it.
Result :: 50%
